- system-under-test: cloned human 5-HT1A receptors (Homo sapiens)
- Construct: expressed in transfected cells; host or cells: HeLa cells (HA7)
- Sequence (P08908 whole entry): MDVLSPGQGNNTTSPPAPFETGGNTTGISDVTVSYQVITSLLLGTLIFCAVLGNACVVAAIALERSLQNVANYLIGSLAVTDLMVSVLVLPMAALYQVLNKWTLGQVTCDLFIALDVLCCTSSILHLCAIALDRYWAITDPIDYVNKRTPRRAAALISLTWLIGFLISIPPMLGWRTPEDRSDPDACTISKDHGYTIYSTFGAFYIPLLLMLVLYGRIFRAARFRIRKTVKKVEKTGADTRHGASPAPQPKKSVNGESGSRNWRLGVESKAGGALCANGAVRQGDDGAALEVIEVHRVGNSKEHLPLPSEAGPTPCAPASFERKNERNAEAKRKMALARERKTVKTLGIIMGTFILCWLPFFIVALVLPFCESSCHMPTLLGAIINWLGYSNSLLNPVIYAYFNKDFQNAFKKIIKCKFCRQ
- test-protocol: Inhibition of 3H-5-CT binding to human 5-HT1A receptors
- condition-info: at 100 nM; cloned human 5-HT1A receptors in HeLa cells (HA7)
readout-kind: inhibition at 0.1 µM (%)

INSERT INTO results (chemical_smiles, system_under_test, readout_kind, test_result) VALUES
  ('Clc1ccc(SCCCN2CCN(c3cccc4c3OCCO4)CC2)cc1Cl', 'cloned human 5-HT1A receptors (Homo sapiens)', 'inhibition at 0.1 µM', 100),
  ('Cc1ccccc1SCCN1CCN(c2cccc3c2OCCO3)CC1', 'cloned human 5-HT1A receptors (Homo sapiens)', 'inhibition at 0.1 µM', 91),
  ('CCc1ccccc1OCCN1CCN(c2cccc3c2OCCO3)CC1', 'cloned human 5-HT1A receptors (Homo sapiens)', 'inhibition at 0.1 µM', 79),
  ('Fc1cc(Br)cc(F)c1OCCCN1CCN(c2cccc3ccsc23)CC1', 'cloned human 5-HT1A receptors (Homo sapiens)', 'inhibition at 0.1 µM', 93);
